system: HeLa Kyoto; assay: solubility in G1/S (NP-40 vs SDS abundance) (log2 ratio); higher = more soluble; conditions: cell cycle stage: G1/S;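 note: HeLa Kyoto cells arrested at G1/S by double thymidine block, proteins quantified by TMT10plex mass spectrometry in mild NP-40 versus SDS extracts, three biological replicates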
readout.name: solubility in G1/S (log2)
The answer should be written as a number, with no unit following it.

sequence.data	solubility in G1/S (log2)
MPGRAPLRTVPGALGAWLLGGLWAWTLCGLCSLGAVGAPRPCQAPQQWEGRQVMYQQSSGRNSRALLSYDGLNQRVRVLDERKALIPCKRLFEYILLYKDGVMFQIDQATKQCSKMTLTQPWDPLDIPQNSTFEDQYSIGGPQEQITVQEWSDRKSARSYETWIGIYTVKDCYPVQETFTINYSVILSTRFFDIQLGIKDPSVFTPPSTCQMAQLEKMSEDCSW [EPDR1]	0.348

Ask | # solubility in G1/S (log2) lookup, item MVKQIESKTAFQEALDAAGDKLVVVDFSATWCGPCKMIKPFFHSLSEKYSNVIFLEVDVDDCQDVASECEVKCMPTFQFFKKGQKVGEFSGANKEKLEATINELV [TXN]
Reply | 0.255

Ask | # solubility in G1/S (log2) lookup, item MSRQTATALPTGTSKCPPSQRVPALTGTTASNNDLASLFECPVCFDYVLPPILQCQSGHLVCSNCRPKLTCCPTCRGPLGSIRNLAMEKVANSVLFPCKYASSGCEITLPHTEKADHEELCEFRPYSCPCPGASCKWQGSLDAVMPHLMHQHKSITTLQGEDIVFLATDINLPGAVDWVMMQSCFGFHFMLVLEKQEKYDGHQQFFAIVQLIGTRKQAENFAYRLELNGHRRRLTWEATPRSIHEGIATAIMNSDCLVFDTSIAQLFAENGNLGINVTISMC [SIAH1]
Reply | 0.247
